tested on: SK-OV-3 multi-cell spheroids, viability; assay: Anticancer human tumor SK-OV-3 cell line growth inhibition [IpAb]; details: second compound 1 µM; first compound 0.03 µM; stronger effect = lower value;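 as to viability, T/C: viability read after seven days of drug exposure; percent of DMSO vehicle control luminescence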
recorded_endpoint: viability, T/C

Worked examples, 2 molecules total:
molecule: CC(=O)c1c(C)c2cnc(Nc3ccc(N4CCNCC4)cn3)nc2n(C2CCCC2)c1=O + CC(C)NCC(C(=O)N1CCN(c2ncnc3c2C(C)CC3O)CC1)c1ccc(Cl)cc1
viability, T/C: 14.7%

molecule: CC(=O)c1c(C)c2cnc(Nc3ccc(N4CCNCC4)cn3)nc2n(C2CCCC2)c1=O + CCN1CCN(Cc2ccc(Nc3ncc(F)c(-c4cc(F)c5nc(C)n(C(C)C)c5c4)n3)nc2)CC1
viability, T/C: 35.9%

As a next step, examine the molecule that follows.
Exercise: # get_value(readout='viability, T/C', item= CC(C)(C)c1cnc(CSc2cnc(NC(=O)C3CCNCC3)s2)o1 + CC(C)NCC(C(=O)N1CCN(c2ncnc3c2C(C)CC3O)CC1)c1ccc(Cl)cc1 )
Key: 30.2%

---

Would you kindly list log10 IC50 for each of these molecules?
tested on: SK-OV-3 multi-cell spheroids, viability; assay: Anticancer human tumor SK-OV-3 cell line growth inhibition [IpAb]; conditions: curve of first compound; second compound 0.01 µM
Note: values are log10 of IC50 expressed in nM.

molecule: CC(=O)c1c(C)c2cnc(Nc3ccc(N4CCNCC4)cn3)nc2n(C2CCCC2)c1=O + CCN1CCN(Cc2ccc(Nc3ncc(F)c(-c4cc(F)c5nc(C)n(C(C)C)c5c4)n3)nc2)CC1
log10 IC50: 2.44

molecule: Cn1cnc2c(F)c(Nc3ccc(Br)cc3Cl)c(C(=O)NOCCO)cc21 + CCN1CCN(Cc2ccc(Nc3ncc(F)c(-c4cc(F)c5nc(C)n(C(C)C)c5c4)n3)nc2)CC1
log10 IC50: 3.22

For every listed record, write down its log10 IC50.
1. CC(C)n1nc(-c2ccc3oc(N)nc3c2)c2c(N)ncnc21 + CCN1CCN(Cc2ccc(Nc3ncc(F)c(-c4cc(F)c5nc(C)n(C(C)C)c5c4)n3)nc2)CC1
2. CC1(C)CCC(CN2CCN(c3ccc(C(=O)NS(=O)(=O)c4ccc(NCC5CCOCC5)c([N+](=O)[O-])c4)c(Oc4cnc5[nH]ccc5c4)c3)CC2)=C(c2ccc(Cl)cc2)C1 + CCN1CCN(Cc2ccc(Nc3ncc(F)c(-c4cc(F)c5nc(C)n(C(C)C)c5c4)n3)nc2)CC1

Key:
1. 0.22
2. 3.40

Below are some molecules; for each one, tell me its log10 IC50.
1. Cc1nc(NC(=O)N2CCCC2C(N)=O)sc1-c1ccnc(C(C)(C)C(F)(F)F)c1 (stereo not drawn) + CCN1CCN(Cc2ccc(Nc3ncc(F)c(-c4cc(F)c5nc(C)n(C(C)C)c5c4)n3)nc2)CC1
2. COc1c(OCCCN2CCOCC2)ccc2c3n(c(=NC(=O)c4cnc(N)nc4)nc12)CCN3 + CCN1CCN(Cc2ccc(Nc3ncc(F)c(-c4cc(F)c5nc(C)n(C(C)C)c5c4)n3)nc2)CC1

Key:
2.38
0.81

---

system: SK-OV-3 multi-cell spheroids, viability; assay: Anticancer human tumor SK-OV-3 cell line growth inhibition [IpAb]; conditions: second compound 1 µM; first compound 0.1 µM; stronger effect = lower value;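 as to viability, T/C: viability read after seven days of drug exposure; percent of DMSO vehicle control luminescence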
With a cut-off of 20%, any viability, T/C strictly below it is called condition met; any viability, T/C meeting it or above is called condition not met.

A selection of reference data follows.
molecule: C=CCn1c(=O)c2cnc(Nc3ccc(N4CCN(C)CC4)cc3)nc2n1-c1cccc(C(C)(C)O)n1 + CC(C)NCC(C(=O)N1CCN(c2ncnc3c2C(C)CC3O)CC1)c1ccc(Cl)cc1
assigned_class: condition met
//
molecule: C=CCn1c(=O)c2cnc(Nc3ccc(N4CCN(C)CC4)cc3)nc2n1-c1cccc(C(C)(C)O)n1 + CCN1CCN(Cc2ccc(Nc3ncc(F)c(-c4cc(F)c5nc(C)n(C(C)C)c5c4)n3)nc2)CC1
assigned_class: condition not met
//
molecule: CC1(C)CCC(CN2CCN(c3ccc(C(=O)NS(=O)(=O)c4ccc(NCC5CCOCC5)c([N+](=O)[O-])c4)c(Oc4cnc5[nH]ccc5c4)c3)CC2)=C(c2ccc(Cl)cc2)C1 + CCN1CCN(Cc2ccc(Nc3ncc(F)c(-c4cc(F)c5nc(C)n(C(C)C)c5c4)n3)nc2)CC1
assigned_class: condition not met
//
molecule: C=CC(=O)N1CCN(c2nc(=O)n(-c3c(C)ccnc3C(C)C)c3nc(-c4c(O)cccc4F)c(F)cc23)C(C)C1 (centres undefined) + CCN1CCN(Cc2ccc(Nc3ncc(F)c(-c4cc(F)c5nc(C)n(C(C)C)c5c4)n3)nc2)CC1
assigned_class: condition not met

Exercise: Decide: viability, T/C of Cn1ncnc1[C@H]1c2n[nH]c(=O)c3cc(F)cc(c23)N[C@@H]1c1ccc(F)cc1 + CC(C)NCC(C(=O)N1CCN(c2ncnc3c2C(C)CC3O)CC1)c1ccc(Cl)cc1 strictly below 20%?
Key: condition met

Exercise: Input COc1c(OCCCN2CCOCC2)ccc2c3n(c(=NC(=O)c4cnc(N)nc4)nc12)CCN3 + CCN1CCN(Cc2ccc(Nc3ncc(F)c(-c4cc(F)c5nc(C)n(C(C)C)c5c4)n3)nc2)CC1
Key: condition met

Exercise: One more molecule: Cn1nccc1Nc1nccc(-c2ccn(C(CO)c3ccc(Cl)c(F)c3)c(=O)c2)n1 (centres undefined) + CCN1CCN(Cc2ccc(Nc3ncc(F)c(-c4cc(F)c5nc(C)n(C(C)C)c5c4)n3)nc2)CC1
Key: condition not met

Exercise: Similarly, CC(C)n1nc(-c2ccc3oc(N)nc3c2)c2c(N)ncnc21 + CCN1CCN(Cc2ccc(Nc3ncc(F)c(-c4cc(F)c5nc(C)n(C(C)C)c5c4)n3)nc2)CC1 ?
Key: condition met

Exercise: Try C=CC(=O)N1CCN(c2nc(=O)n(-c3c(C)ccnc3C(C)C)c3nc(-c4c(O)cccc4F)c(F)cc23)C(C)C1 (centres undefined) + CC(C)NCC(C(=O)N1CCN(c2ncnc3c2C(C)CC3O)CC1)c1ccc(Cl)cc1 next.
Key: condition met
